Assay: qHTS Assay for Lipid Storage Modulators in Drosophila S3 Cells
Conditions: BODIPY lipid droplet fluorescence, 18-24 h, cells fed with added oleic acid; series mostly up to 46.1 µM
Hit rate of the full screen: of about 320,000 compounds, about 2,100 (0.66%) were called active. Roughly 53% stayed inconclusive and do not appear here. The call rests on the fitted dose curve; in most records, active means well fitted inhibition curve with a large enough effect in the signal ratio, with a control signal flat (not every such curve was filed as active); inconclusive means small, poorly fitted or top-dose-only effect, or effect the other way, or a change in a side signal; inactive means flat fitted curve, though single readings scatter; the % refers to the signal ratio. Many of the other results were omitted from the sample, so actives are more common in it than they were.
Please answer using one outcome listed in True = active, False = inactive

# fetch the recorded call for COc1ccc(N2CCN(C(=O)CN3C(=O)NC(C)(C4CC4)C3=O)CC2)cc1 (stereo not given) here
False

# fetch the recorded call for COc1cccc(N2CCN(C(=O)CN3C(=O)NC4(CCCC4)C3=O)CC2)c1 here
False

# fetch the recorded call for COc1ccc(C2(c3ccc(OC)cc3)NC(=O)N(CC(=O)N3CCOCC3)C2=O)cc1 here
True

# fetch the recorded call for COc1ccc(-c2csc(NC(=O)CN3C(=O)C4CCCCC4C3=O)n2)c(OC)c1 (stereo not given) here
False

# fetch the recorded call for COc1ccc(N2CCN(C(=O)CSc3ccc(C)cc3)CC2)cc1 here
False

* * *

Test: qHTS Assay for Lipid Storage Modulators in Drosophila S3 Cells
Settings: BODIPY lipid droplet fluorescence, 18-24 h, cells fed with added oleic acid; series mostly up to 46.1 µM
In all, about 320,000 compounds went through this assay and about 2,100 (0.66%) were called active. About 53% were inconclusive and are not listed. Calls come from the whole dose curve; as a rule, active = well fitted inhibition curve with a large enough effect in the signal ratio, with a control signal flat (not every such curve was filed as active); inconclusive = small, poorly fitted or top-dose-only effect, or effect the other way, or a change in a side signal; inactive = flat fitted curve, though single readings scatter; the % refers to the signal ratio. The sample holds actives, similar compounds and a random draw of the others, so the mix is not that of the screen.
Please answer using one outcome listed in true for active, false for inactive

# fetch the recorded call for N#Cc1ccc(C(CC(=O)O)N2Cc3ccccc3C2=O)cc1 (configuration not stated) here
false

# fetch the recorded call for Cc1cc(NC(=O)COC(=O)CCC(=O)c2ccc(F)cc2)no1 here
false

# fetch the recorded call for Cc1cccc(OCCC(=O)NNC(=O)c2ccoc2C)c1 here
false

# fetch the recorded call for CCN(/C=N/S(=O)(=O)c1ccc(Cl)cc1)CC here
false

# fetch the recorded call for O=C(O)/C=C/C(=O)NCc1ccccn1 here
false

# fetch the recorded call for COc1ccc(C(=O)CN2CCN(c3ccc(Cl)cc3)CC2)cc1OC here
false

# fetch the recorded call for CCCCn1nc(NS(=O)(=O)c2cccc3nonc23)c2cc3cccc(C)c3nc21 here
false

# fetch the recorded call for CC(C)CC(=O)Nc1ccc(C(=O)CN2CCC(C)CC2)cc1 here
false

# fetch the recorded call for CCOc1ccccc1C(=O)NN1C(=O)C2CCCCC2C1=O (configuration not stated) here
false

# fetch the recorded call for CC(C)CC(=O)Nc1ccc(N2CCOCC2)cc1 here
false

# fetch the recorded call for COc1ccc(N2CCN(CC(=O)c3ccc(Cl)cc3)CC2)cc1 here
true

# fetch the recorded call for COc1ccc(N2CCN(CC(=O)c3ccccc3)CC2)cc1 here
false

* * *

Experiment: qHTS Assay for Lipid Storage Modulators in Drosophila S3 Cells
Conditions: BODIPY lipid droplet fluorescence, 18-24 h, cells fed with added oleic acid; series mostly up to 46.1 µM
Hit rate of the full screen: of about 320,000 compounds, about 2,100 (0.66%) were called active. Not shown: some 53% with an inconclusive outcome. Calls come from the whole dose curve; as a rule, active = well fitted inhibition curve with a large enough effect in the signal ratio, with a control signal flat (not every such curve was filed as active); inconclusive = small, poorly fitted or top-dose-only effect, or effect the other way, or a change in a side signal; inactive = flat fitted curve, though single readings scatter; the % refers to the signal ratio. What follows is part of a selection rich in actives, with near analogues and random picks from the rest.
Please answer using one outcome listed in TRUE for active, FALSE for inactive

# fetch the recorded call for C=CCSc1nnc(CC(OC)OC)n1-c1ccccc1 here
FALSE

# fetch the recorded call for CCOC(=O)c1sc(N2N=C(C)/C(=C\c3ccc(OCC(=O)OC)cc3)C2=O)nc1C here
FALSE

# fetch the recorded call for CC1(C)C(C=C(Cl)Cl)C1C(=O)N(Cc1ccccc1Cl)C1CCS(=O)(=O)C1 (stereo unspecified) here
FALSE

# fetch the recorded call for CCOC(=O)CN1NC2(CCC(C(C)(C)C)CC2)NC1=S (stereo unspecified) here
FALSE

# fetch the recorded call for CCn1c(SCC(=O)Nc2sc3c(c2C#N)CCC(C(C)(C)C)C3)nnc1-c1ccco1 (stereo unspecified) here
FALSE

# fetch the recorded call for Cc1ccccc1/C=N/n1c(COc2ccccc2)n[nH]c1=S here
FALSE

# fetch the recorded call for CCOC(=O)CN1NC2(CCCCCCC2)NC1=S here
FALSE

# fetch the recorded call for C=CCN(C(=O)c1ccccc1)C1CCS(=O)(=O)C1 (stereo unspecified) here
FALSE

# fetch the recorded call for Cc1c(C(=O)N(Cc2ccc(Cl)cc2)C2CCS(=O)(=O)C2)oc2ccccc12 (stereo unspecified) here
TRUE

# fetch the recorded call for COc1ccc([N+](=O)[O-])cc1NC(=O)CSc1nc(C)c(C)c(C)n1 here
FALSE

# fetch the recorded call for Fc1ccc(CNn2cnnc2SCc2ccc(F)cc2)cc1 here
FALSE
